Origin of measurements: patent US20240043860A1

Target: HPPD variant AVESA V306 (SEQ ID NO: 32) (Avena sativa, UniProt A0ACD5V6K6, A327R/I340E/L359M/P271N/R214G/V218I)
Sequence (A0ACD5V6K6 entry or part of it R214G/V218I/P271N/A327R/I340E/L359M): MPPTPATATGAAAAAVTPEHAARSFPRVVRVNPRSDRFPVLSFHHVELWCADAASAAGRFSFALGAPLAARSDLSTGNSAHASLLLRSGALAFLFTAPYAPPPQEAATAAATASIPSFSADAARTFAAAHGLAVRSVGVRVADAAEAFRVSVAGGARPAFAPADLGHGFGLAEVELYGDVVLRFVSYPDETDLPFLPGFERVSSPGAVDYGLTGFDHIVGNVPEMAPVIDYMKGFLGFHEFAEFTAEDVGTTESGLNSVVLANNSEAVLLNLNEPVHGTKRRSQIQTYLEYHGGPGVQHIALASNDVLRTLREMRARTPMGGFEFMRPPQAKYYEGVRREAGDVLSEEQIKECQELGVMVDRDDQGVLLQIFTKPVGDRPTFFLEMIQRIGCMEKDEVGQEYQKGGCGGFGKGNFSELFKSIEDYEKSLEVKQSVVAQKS
Assay: biochemical
Assay type: biochemical
pIC50: −log10 of the molar value.

# COMPOUND, pIC50
data = [
    ("Cn1nnnc1NC(=O)c1ccc(C(F)(F)F)nc1-n1cncn1 [Herbicide D]", 3.89),
]

* * *

Molecular target: HPPD variant AVESA V208 (SEQ ID NO: 14) (Avena sativa, UniProt A0ACD5V6K6, A327R/I340E/L359M/P271N/V218I)
Sequence (A0ACD5V6K6 entry or part of it V218I/P271N/A327R/I340E/L359M): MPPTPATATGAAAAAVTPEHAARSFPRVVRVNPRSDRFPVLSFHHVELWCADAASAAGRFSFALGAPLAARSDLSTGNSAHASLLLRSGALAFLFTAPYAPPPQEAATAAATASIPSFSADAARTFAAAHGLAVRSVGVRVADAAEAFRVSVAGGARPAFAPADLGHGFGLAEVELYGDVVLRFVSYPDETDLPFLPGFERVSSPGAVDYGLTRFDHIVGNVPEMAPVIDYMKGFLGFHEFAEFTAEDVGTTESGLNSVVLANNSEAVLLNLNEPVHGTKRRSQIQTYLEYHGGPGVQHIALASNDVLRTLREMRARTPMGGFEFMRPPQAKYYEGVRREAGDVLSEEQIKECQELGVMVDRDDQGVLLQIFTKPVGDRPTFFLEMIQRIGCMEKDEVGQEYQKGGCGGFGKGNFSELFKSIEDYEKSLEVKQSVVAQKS
Assay: biochemical
Type: biochemical
Settings: AVESA V208, SEQ ID NO: 14; read-out: IC50

# COMPOUND, IC50
records = [
    ("COc1ccc(-n2nc(C)cc(C(=O)C3C(=O)CCCC3=O)c2=O)cc1OC [Herbicide C, dioxopyritrione]", "> 50 µM"),
]

* * *

Target: HPPD variant AVESA V162 (SEQ ID NO: 122) (Avena sativa, UniProt A0ACD5V6K6, A327R/I340E/L359M/V218I)
Sequence (A0ACD5V6K6 entry or part of it V218I/A327R/I340E/L359M): as the sequence (A0ACD5V6K6 entry or part of it V218I/P271N/A327R/I340E/L359M) above, with N271P counted along it
Experiment: biochemical
Format: biochemical
pIC50: −log10 of the molar value.

# MOLECULE, pIC50
data = [
    ("Cn1nnnc1NC(=O)c1ccc(C(F)(F)F)nc1-n1cncn1 [Herbicide D]", 5.17),
]

* * *

Tested on: HPPD variant APESV V200 (SEQ ID NO: 6)
Assay: coupled HGO assay
Type: biochemical, Apera spica-venti
Procedure: DNA sequences (SEQ ID NOs: 65-118, 128, 130, 131, and 133), synthesized for expression in E. coli, by GeneWiz (USA) to encode HPPD variants (SEQ ID NOs: 5-58, 122, 124, 125 and 127) derived from either Avena sativa (SEQ ID NOs: 122, 124), Alopecurus myosuroides (SEQ ID NO: 126) or Apera spica-venti (SEQ ID NOs: 123, 125) were transformed into E coli BL21 (DE3) (New England Biolabs) and grown in 0.5 ml Terrific broth +50 ug/ml Kanamycin media in a 96-deepwell block overnight (37° C., 900rpm). […]
Recorded IC50 by entry

# COMPOUND, IC50, µM
rows = [
    ("Cn1nnnc1NC(=O)c1ccc(C(F)(F)F)nc1-n1cncn1 [Herbicide D]", 85.9),
    ("CS(=O)(=O)c1ccc(C(=O)C2C(=O)CCCC2=O)c([N+](=O)[O-])c1", 32.2),
]

* * *

Tested on: HPPD variant ALOME V200 (SEQ ID NO: 7)
Assay: coupled HGO assay
Assay type: biochemical, Alopecurus myosuroides
pIC50: −log10 of the molar value.

# COMPOUND, STUDY_TARGET, pIC50
records = [
    ("Cn1nnnc1NC(=O)c1ccc(C(F)(F)F)nc1-n1cncn1 [Herbicide D]", "HPPD variant ALOME V200 (SEQ ID NO: 7)", 4.11),
    ("CS(=O)(=O)c1ccc(C(=O)C2C(=O)CCCC2=O)c([N+](=O)[O-])c1", "HPPD variant ALOME V200 (SEQ ID NO: 7)", 4.50),
]

* * *

Target: HPPD variant AVESA V332 (SEQ ID NO: 44) (Avena sativa, UniProt A0ACD5V6K6, A327R/I340E/K404N/L359M/P271N/R214G/V218I/V260A)
Experiment: biochemical
Format: biochemical
pIC50: −log10 of the molar value.

# MOLECULE, pIC50
records = [
    ("Cn1nnnc1NC(=O)c1ccc(C(F)(F)F)nc1-n1cncn1 [Herbicide D]", 3.87),
]

* * *

Biological target: HPPD variant AVESA V296 (SEQ ID NO: 20) (Avena sativa, UniProt A0ACD5V6K6, A327R/G411A/I340E/L359Y/R214G/V218I)
Sequence (A0ACD5V6K6 entry or part of it R214G/V218I/A327R/I340E/L359Y/G411A): as the sequence (A0ACD5V6K6 entry or part of it R214G/V218I/P271N/A327R/I340E/L359M) above, with N271P, M359Y, G411A counted along it
Assay: biochemical
Assay type: biochemical

# COMPOUND, IC50
measured = [
    ("Cn1nnnc1NC(=O)c1ccc(C(F)(F)F)nc1-n1cncn1 [Herbicide D]", "> 500 µM"),
]

* * *

Biological target: HPPD variant AVESA V307 (SEQ ID NO: 35) (Avena sativa, UniProt A0ACD5V6K6, A327R/I340E/L359M/P271N/R214G/V218I/V260A)
Sequence (A0ACD5V6K6 entry or part of it R214G/V218I/V260A/P271N/A327R/I340E/L359M): as the sequence (A0ACD5V6K6 entry or part of it V218I/P271N/A327R/I340E/L359M) above, with R214G, V260A counted along it
Assay: biochemical
Format: biochemical
MEASUREMENT_KIND: IC50 (µM)

# COMPOUND, READING
data = [
    ("Cn1nnnc1NC(=O)c1ccc(C(F)(F)F)nc1-n1cncn1 [Herbicide D]", 262),
]

* * *

Target: HPPD variant AVESA V332 (SEQ ID NO: 44) (Avena sativa, UniProt A0ACD5V6K6, A327R/I340E/K404N/L359M/P271N/R214G/V218I/V260A)
Test: biochemical
Assay type: biochemical
Conditions: AVESA V332, SEQ ID NO: 44; read-out: IC50

# MOLECULE, IC50
measured = [
    ("COc1ccc(-n2nc(C)cc(C(=O)C3C(=O)CCCC3=O)c2=O)cc1OC [Herbicide C, dioxopyritrione]", "> 50 µM"),
]

* * *

Biological target: HPPD variant AVESA V180 (SEQ ID NO: 124) (Avena sativa, UniProt A0ACD5V6K6, A327R/G411A/I340E/L359M/V218I)
Sequence (A0ACD5V6K6 entry or part of it V218I/A327R/I340E/L359M/G411A): as the sequence (A0ACD5V6K6 entry or part of it R214G/V218I/P271N/A327R/I340E/L359M) above, with G214R, N271P, G411A counted along it
Assay: biochemical
Type: biochemical
Conditions: AVESA V180, SEQ ID NO: 124; read-out: IC50

# COMPOUND, IC50
rows = [
    ("COc1ccc(-n2nc(C)cc(C(=O)C3C(=O)CCCC3=O)c2=O)cc1OC [Herbicide C, dioxopyritrione]", "0.61 µM"),
]

* * *

Molecular target: HPPD variant AVESA V180 (SEQ ID NO: 124) (Avena sativa, UniProt A0ACD5V6K6, A327R/G411A/I340E/L359M/V218I)
Experiment: biochemical
Type: biochemical
MEASUREMENT_KIND: IC50

# COMPOUND, READING
records = [
    ("Cn1nnnc1NC(=O)c1ccc(C(F)(F)F)nc1-n1cncn1 [Herbicide D]", "> 500 µM"),
]

* * *

Molecular target: HPPD variant AVESA V358 (SEQ ID NO: 56) (Avena sativa, UniProt A0ACD5V6K6, A327R/I340E/L359M/P271N/R214G/S304T/V218I/V260A)
Assay: biochemical
Assay type: biochemical
Details: AVESA V358, SEQ ID NO: 56; read-out: IC50

# COMPOUND, IC50
measured = [
    ("COc1ccc(-n2nc(C)cc(C(=O)C3C(=O)CCCC3=O)c2=O)cc1OC [Herbicide C, dioxopyritrione]", "< 190 nM"),
]

* * *

Molecular target: HPPD variant AVESA V162 (SEQ ID NO: 122) (Avena sativa, UniProt A0ACD5V6K6, A327R/I340E/L359M/V218I)
Experiment: biochemical
Assay type: biochemical
Details: AVESA V162, SEQ ID NO: 122; read-out: IC50
MEASUREMENT_KIND: IC50 (µM)

# COMPOUND, MEASUREMENT_KIND, READING
data = [
    ("COc1ccc(-n2nc(C)cc(C(=O)C3C(=O)CCCC3=O)c2=O)cc1OC [Herbicide C, dioxopyritrione]", "IC50", 0.25),
]

* * *

Target: HPPD variant AVESA V349 (SEQ ID NO: 47) (Avena sativa, UniProt A0ACD5V6K6, A327R/I340E/L359M/P271N/S304T/V218I)
Sequence (A0ACD5V6K6 entry or part of it V218I/P271N/S304T/A327R/I340E/L359M): as the sequence (A0ACD5V6K6 entry or part of it V218I/P271N/A327R/I340E/L359M) above, with S304T counted along it
Assay: biochemical
Type: biochemical
Protocol: 25 ul of the overnight cultures were inoculated into fresh 96-deepwell block containing 1 ml Formedium Autoinduction Media (AIM). The AIM cultures were grown for 3h at 37° C. (900rpm) and then transferred to 20° C. overnight (900rpm) to allow protein expression. The overnight cultures were centrifuged and 500 ul of Cellytic B (Sigma Aldrich) was added to resuspend the cell pellets. The coupled HGO assay (Siehl et al, 2014) is used to generate IC50 values for the HPPD variants of interest. […]
pIC50: −log10 of the molar value.

# COMPOUND, pIC50
records = [
    ("Cn1nnnc1NC(=O)c1ccc(C(F)(F)F)nc1-n1cncn1 [Herbicide D]", 3.71),
]

* * *

Biological target: HPPD variant AVESA V351 (SEQ ID NO: 50) (Avena sativa, UniProt A0ACD5V6K6, A327R/G411A/I340E/L359Y/R214G/S304T/V218I)
Sequence (A0ACD5V6K6 entry or part of it R214G/V218I/S304T/A327R/I340E/L359Y/G411A): as the sequence (A0ACD5V6K6 entry or part of it V218I/P271N/A327R/I340E/L359M) above, with R214G, N271P, S304T, M359Y, G411A counted along it
Assay: biochemical
Assay type: biochemical
pIC50: −log10 of the molar value.

# COMPOUND, pIC50
data = [
    ("Cn1nnnc1NC(=O)c1ccc(C(F)(F)F)nc1-n1cncn1 [Herbicide D]", "< 3.30"),
]

* * *

Target: HPPD variant AVESA V357 (SEQ ID NO: 53) (Avena sativa, UniProt A0ACD5V6K6, A327R/I340E/L359M/P271N/R214G/S304T/V218I)
Sequence (A0ACD5V6K6 entry or part of it R214G/V218I/P271N/S304T/A327R/I340E/L359M): as the sequence (A0ACD5V6K6 entry or part of it V218I/P271N/A327R/I340E/L359M) above, with R214G, S304T counted along it
Experiment: biochemical
Format: biochemical

# MOLECULE, RESULT_UNIT, IC50
rows = [
    ("Cn1nnnc1NC(=O)c1ccc(C(F)(F)F)nc1-n1cncn1 [Herbicide D]", "µM", 243),
]
